- assay overview: photoluminescence quantum yield (fraction); solvent given as SMILES
- recorded conditions: in ClCCl
Quick reference: photoluminescence quantum yield of the listed items.
measurement name: photoluminescence quantum yield

molecule	measurement name	reported
CCN1c2ccc(/C=N/Nc3ccccn3)cc2Sc2cc(-c3ccc(C#N)cc3)ccc21	photoluminescence quantum yield	0.36
O=Cc1ccc(C2=Cc3ccccc3P2(=O)c2ccccc2)cc1 (configuration not stated)	photoluminescence quantum yield	0.056
CN(C)c1ccc2cc(C3=[O+][B-](F)(F)OC(c4ccccc4)=C3)ccc2c1	photoluminescence quantum yield	0.13
CCN(CC)c1ccc2c(-c3ccccc3C(=O)O)c3c([o+]c2c1)/C(=C/c1ccc2c(c1)c1ccccc1n2CC)CCC3	photoluminescence quantum yield	0.08
c1cc(-c2c3ccccc3c(-c3ccc4ccccc4c3)c3ccccc23)cc(-n2c3ccccc3c3ccccc32)c1	photoluminescence quantum yield	0.73
CC1=N/C(=C\c2ccccc2N)C(=O)N1C	photoluminescence quantum yield	0.004
C1=C(c2ccccc2)S[C@]23C1=C(c1ccccc1)[C@H](c1ccccc12)c1ccccc13	photoluminescence quantum yield	1
COc1ccc2n1[B-](F)(F)[N+]1=C(SC#N)C=CC1=C2c1ccccc1	photoluminescence quantum yield	0.07
CCN(CC)c1ccc2cc(/C=C3\CCCc4c3[o+]c3cc(N(CC)CC)ccc3c4-c3ccccc3C(=O)O)c(=O)oc2c1	photoluminescence quantum yield	0.07
CCC(CC)COC1=CC2=C3c4cc(OCC(CC)CC)c(-c5cccs5)n4[B-](F)(F)[n+]4nnn(c43)[B-](F)(F)[N+]2=C1c1cccs1	photoluminescence quantum yield	0.06
F[B-]1(F)n2cccc2C(c2c3ccccc3c(-c3ccccc3)c3ccccc23)=C2C=CC=[N+]21	photoluminescence quantum yield	0.002
CCN1C(=O)C(C2C(=O)c3c4ccccc4cc4cc5ccccc5c2c34)C(=O)N(CC)C1=S (configuration not stated)	photoluminescence quantum yield	0.237
Cc1nc(-c2cc(F)ccc2O)n2c1CCCC2	photoluminescence quantum yield	0.72
CCCCCCCCCCCCN1C(=O)c2c(c3ccc4cc(-c5ccc(-c6ccccc6)cc5)c(OC)cc4c3c3c2ccc2cc(-c4ccc(-c5ccccc5)cc4)c(OC)cc23)C1=O	photoluminescence quantum yield	0.17
CCN(CC)c1ccc2cc(/C=C/C3=CC(/C=C/c4cc5ccc(N(CC)CC)cc5oc4=O)=[O+][B-](F)(F)O3)c(=O)oc2c1	photoluminescence quantum yield	0.271
F[B-]1(F)n2c(cc(-c3ccccc3)c2-c2ccccc2)C(c2ccccc2)=C2C=C(c3ccccc3)C(c3ccccc3)=[N+]21	photoluminescence quantum yield	0.4
COc1cc2c(cc1OC)C1=C[C@H](c3ccccc3)C3(C(C#N)=C(C#N)N1CC2)c1cc(Br)ccc1-c1ccc(Br)cc13	photoluminescence quantum yield	0.00059

---

- assay overview: photoluminescence quantum yield (fraction); solvent given as SMILES
- recorded conditions: in Cc1ccccc1
photoluminescence quantum yield of 0.1 or higher: YES. Under 0.1: NO.

smiles representation	classification
C(#Cc1nc2ccccc2s1)c1ccc(N(c2ccc(C#Cc3nc4ccccc4s3)cc2)c2ccc(C#Cc3nc4ccccc4s3)cc2)cc1	YES
CCCCN1C(=S)c2cccc3cccc(c23)C1=S	NO
COc1ccc(C2=CC3=C(c4c(C)cc(C)cc4C)c4cc(-c5ccc(OC)cc5)c(-c5ccc(OC)cc5)n4[B-](F)(F)[N+]3=C2c2ccc(OC)cc2)cc1	YES
CCN1/C(=C\c2c(-c3ccc(N(C)C)cc3)c(=O)c2=O)C=Cc2ccccc21	NO
COc1ccc(-c2sc3c(-c4ccc(OC)cc4)c4n(c3c2-c2ccc(OC)cc2)[B-](F)(F)[N+]2=Cc3c(-c5ccc(OC)cc5)c5sc(-c6ccc(OC)cc6)c(-c6ccc(OC)cc6)c5n3[B-](F)(F)[N+]2=C4)cc1	YES
COc1ccc(N(c2ccc(C=C(c3ccccc3)c3ccccc3)cc2)c2ccc(OC)cc2)cc1	NO

---

Each entry below lists one item and its recorded photoluminescence quantum yield value.
- assay overview: photoluminescence quantum yield (fraction); solvent given as SMILES
- recorded conditions: in CC(C)=O

compound	photoluminescence quantum yield
c1ccc(-c2nn(-c3ccccc3)c3nc4ccc(N(c5ccccc5)c5cccc6ccccc56)cc4cc23)cc1	0.53
CCn1c2ccccc2c2cc(/C=C/c3cccc(/C=C/c4ccc5c(c4)c4ccccc4n5CC)[n+]3CCCS(=O)(=O)[O-])ccc21	0.03
CCN(CC)c1ccc2ccc(=O)oc2c1	0.55
c1ccc(-c2ccc(-c3ccc(-n4c5ccccc5c5ccccc54)cc3)c3nsnc23)cc1	0.059
COC(=O)C(Cc1ccc2oc(-c3ccc(N(c4ccccc4)c4ccccc4)cc3)nc2c1)NC(=O)OC(C)(C)C (centres undefined)	0.68
Cc1ccc(-n2c3ccccc3c3cc(C=C(C#N)C#N)ccc32)cc1	0.05
COC(=O)C(Cc1ccc2oc(-c3ccc4c(c3)c3ccccc3n4-c3ccccc3)nc2c1)NC(=O)OC(C)(C)C (centres undefined)	0.63
c1ccc(C2CCN3COc4c5ccccc5c5c6c7c(c2c3c46)C(c2ccccc2)CCN7CO5)cc1 (centres undefined)	0.046
CN(C)c1ccc(C#Cc2ccc(C#N)cc2)cc1	0.49

---

- assay overview: photoluminescence quantum yield (fraction); solvent given as SMILES
- recorded conditions: in ClCCl
Flag rule - photoluminescence quantum yield less than 0.5 flags yes; the remaining entries get no.

compound	classification
C(=C\N1CCCC1)/c1nc2ccccc2nc1-c1ccccc1	no
COc1cc(OC)cc(C2=C3C(C)=C(I)C(C)=[N+]3[B-](F)(F)n3c(/C=C/c4ccsc4)c(I)c(C)c32)c1	yes
CCCCCCCCCCCCNc1cccc2[n+]1[B-](F)(F)n1c(c3cccc4cccc1c43)=N2	yes
C(#Cc1ncc(-c2ccccc2)o1)c1ccco1	yes
COC1=[N+]2C(=C(c3ccccc3)c3ccc(OC)n3[B-]2(F)F)C=C1SC#N	yes
CC(C)[Si]1(C(C)C)c2cc(C#N)ccc2-c2ccc(N(C)C)cc21	no
C(S/C=C/c1ccc(/C=C/SC=C2CCCCCCC2)cc1)=C1CCCCCCC1	yes
CC(=O)c1c(N[C@@H](Cc2ccc(O)cc2)C(=O)O)c2ccc(N(C)C)cc2oc1=O	yes
CCn1c2ccccc2c2cc(-c3cc(-c4ccc5c(c4)c4ccccc4n5CC)nc(OC)n3)ccc21	no
CCN(CC)c1ccc2cc(-c3cc(SC)c(C#N)c(=O)o3)c(=O)oc2c1	no
Cc1ccc2ccc3cccc4ccc1c2c34	yes
CCCCC(CC)COc1ccc2nc(-c3ccc(-c4ccc(OC)cc4)s3)sc2c1 (configuration not stated)	no
CC(C)[Si]1(C(C)C)c2ccccc2-c2ccc(N(C)C)cc21	yes
[C-]#[N+]c1ccc(-c2ccc(N(C)C)cc2)cc1	no
CCCCC(CC)Cn1c2cc(C#N)ccc2c2ccc(C#N)cc21 (configuration not stated)	yes
F[B-]1(F)n2c(cc3c4ccccc4c4ccccc4c32)-c2ccc3ccccc3[n+]21	no
O=C1c2ccccc2C(=O)c2cc(-c3ccc(N(c4ccccc4)c4ccccc4)cc3)ccc21	yes
CCN(CC)c1ccc(-c2cc3c(s2)c(C(=O)OC)cc(=O)n3C)cc1	no
Cc1cc2oc3ccccc3c2c2[nH]c3ccccc3c12	yes
COc1ccc2cc(C#Cc3ccc([N+](=O)[O-])cc3)ccc2c1	yes
COc1cccc2cc(C)c3c4ccccc4[nH]c3c12	yes
c1ccc(-c2csc(-c3ccncc3)n2)cc1	yes

---

- assay overview: photoluminescence quantum yield (fraction); solvent given as SMILES
- recorded conditions: in Cc1ccccc1
Recorded photoluminescence quantum yield by entry

smiles representation	photoluminescence quantum yield
COCCC1=Cc2nc1ccc1[nH]c(cc1CCOC)c1nc(c(OC(C)=O)cc3[nH]c2cc3CCOC)C(CCOC)=C1	0.27
O=C1c2cccc3c(NCc4ccccn4)c4ccccc4c(c23)C(=O)N1Cc1ccccn1	0.08
CC(C)(C)c1ccc2c(c1)c1cc(C(C)(C)C)ccc1n2-c1c(C#N)c(-n2c3ccc(C(C)(C)C)cc3c3cc(C(C)(C)C)ccc32)c(-n2c3ccc(C(C)(C)C)cc3c3cc(C(C)(C)C)ccc32)c(-n2c3ccc(C(C)(C)C)cc3c3cc(C(C)(C)C)ccc32)c1-n1c2ccc(C(C)(C)C)cc2c2cc(C(C)(C)C)ccc21	0.86
N#Cc1c(-n2c3ccccc3c3cc(I)ccc32)c(C#N)c(-n2c3ccccc3c3cc(I)ccc32)c(-n2c3ccccc3c3cc(I)ccc32)c1-n1c2ccccc2c2cc(I)ccc21	0.78
CCC1(CC)c2ccccc2-c2ccc(C#Cc3ccc4ccc5cccc6ccc3c4c56)cc21	0.99
CN(C)c1ccc2cc(C3=[O+][B-](F)(F)OC(c4ccccc4)=C3)ccc2c1	0.97

---

- assay overview: photoluminescence quantum yield (fraction); solvent given as SMILES
- recorded conditions: in O

molecule	photoluminescence quantum yield
COc1cc(OC)cc(-c2ccc(-c3ccc(C#N)s3)s2)c1	0.02
O=C(O)COc1cccc(OCC(=O)O)c1-c1c2ccc(=[N+]3CCCCC3)cc-2oc2cc(N3CCCCC3)ccc12	0.13
CC/[NH+]=c1\cc2oc3cc(NC)c(C)cc3c(-c3ccccc3C(=O)OCC)c-2cc1C	0.95
C[C@]12C(=O)NC(=O)N([C@H]3CC(O)[C@@H](CO)O3)[C@H]1[C@H]1Oc3cc4oc(=O)ccc4cc3[C@H]12 (some centres undefined)	0.044
